Assay text: NCI Yeast Anticancer Drug Screen. Data for the rad50 strain (AID 155)
Stated conditions: S. cerevisiae rad50 strain growth inhibition; at 50.0 µM; hits give high values
Experimental: Growth inhibition of yeast strains with defined genetic alterations is measured as a screen for potential anti-cancer activity. Selected strains with alterations in DNA damage repair or cell cycle control were exposed to compounds and growth inhibition was measured relative to vehicle treated controls. The strain used in this assay is rad50
Compounds without any hit were thinned out: in the full panel of roughly 79,000, 15% have a hit.
Use Criterion met when the recorded growth inhibition is no lower than 10%; use Criterion not met when it is lower.

> print(dat)
                                   molecule                cat
1  CC1(C)C(C#N)C1C1=C(N2CCOCC2)[C@]2(C)C(OC(=O)c3ccccc3)CC[C@@H]2C1 (some centres undefined)  Criterion not met
2  COc1cc2c(cc1O)CN1Cc3c(ccc(OC)c3O)C2C1 (centres undefined)  Criterion not met
3  CC(=O)Oc1ccc2c(c1)CC[C@@H]1C2[C@@H](O[N+](=O)[O-])C[C@@]2(C)C1CC[C@@H]2O (some centres undefined)      Criterion met
4  CCOP(=O)(OCC)C1(O)CC(n2cc(C)c(=O)[nH]c2=O)OC1CO (centres undefined)  Criterion not met
5                          OCC(CBr)(CBr)CBr  Criterion not met

Could you tell me if the measured growth inhibition of C[N+](C)(C)C1=CC=CC=C1.Br[Br-]Br reaches 10% or more?
Criterion met

Could you tell me if the measured growth inhibition of COC(=O)C1OC1C(=O)OC (centres undefined) reaches 10% or more?
Criterion not met

Could you tell me if the measured growth inhibition of O=C(O)c1ccc(O)cc1 reaches 10% or more?
Criterion met

Could you tell me if the measured growth inhibition of Cc1cc(N(CCC#N)CCC#N)ccc1N=Nc1cccc(C(=O)O)c1 reaches 10% or more?
Criterion not met

Could you tell me if the measured growth inhibition of O=C(O)CC1CCC(CC(=O)O)CC1 (centres undefined) reaches 10% or more?
Criterion not met

Could you tell me if the measured growth inhibition of CN(C)c1ccc2c(SCC(=O)OCC(=O)C3(O)CCC4C5CCC6=CC(=O)C=CC6(C)C5C(O)CC43C)c3ccc(N(C)C)cc3nc2c1 (centres undefined) reaches 10% or more?
Criterion met

Could you tell me if the measured growth inhibition of CSc1nc2nc[nH]c(=O)c2[nH]1 reaches 10% or more?
Criterion not met

Could you tell me if the measured growth inhibition of COc1ccc(C(O)C(C)(C(=O)O)c2ccccc2)cc1 (centres undefined) reaches 10% or more?
Criterion not met

Could you tell me if the measured growth inhibition of CC(=O)NNc1nc(C)c(C(/C=C/c2ccc([N+](=O)[O-])cc2)=N/NC(N)=O)s1 reaches 10% or more?
Criterion met

Could you tell me if the measured growth inhibition of CCOCC(Cl)C(OCC)OCC (centres undefined) reaches 10% or more?
Criterion not met
